# Test system: Renilla luciferase RNA
# experiment.notes: Barcoded aptazyme variant library screen: un-cleaved Renilla luciferase RNA by barcode read counts, HEK293-T cells
# Type: cell-based
# recorded.conditions: un-cleaved Renilla luciferase RNA by barcode read counts; with 1 mM theophylline (ON) over without theophylline (OFF); HEK293-T cells; triplicate
# Text: Based on the findings from Example 1, an aptazyme variant library was generated from the T3H48 ribozyme with one of seven variant theophylline aptamers inserted sequentially after each nucleotide of the DNA sequence encoding the T3H48 ribozyme sequence. […] The seven variant theophylline aptamers vary in their communication channels, which are the ribonucleotides of the aptamer that attach to the ribozyme sequence (see, Table 2). […]
Quick reference for Fold change in RNA expression between the ON state and the OFF state among some molecules
Just the number.

Enquiry: Look at this molecule and give its reported Fold change in RNA expression between the ON state and the OFF state. RA326 (nucleic acid, expressed or natural sequence) DNA: GCTGTCACCGGAATACCAGCATCGTCTTGATGCCCTTGGAAGTCCGGTCTGATGAGTCCCTTGAGGACGAAACAGC
Return: 0.9

Enquiry: Moving on to the next molecule: RA387 (nucleic acid, expressed or natural sequence) DNA: GCGCGTCCTGGATTCGCGGAAACGCGCCGGAATACCAGCATCGTCTTGATGCCCTTGGAAGTCCGGTACATCCAGCTGACGAGTCCCAAATAGGACGAAACGCGC
Return: 0.8

Enquiry: Moving on to the next molecule: RA459 (nucleic acid, expressed or natural sequence) DNA: GCGCGTCCTGGATTCGCGGAAACGCGTACATCCAGCTGACGAGTCCCAAATAGGACGAAGGAATACCAGCATCGTCTTGATGCCCTTGGAAGTCCACGCGC
Return: 0.5

Enquiry: Moving on to the next molecule: RA394 (nucleic acid, expressed or natural sequence) DNA: GCGCGTCCTGGATTCGCAGAATACCAGCATCGTCTTGATGCCCTTGGAAGTCTGGAAACGCGTACATCCAGCTGACGAGTCCCAAATAGGACGAAACGCGC
Return: 0.7
